Experiment: Effective dose for compound on contraction of reserpine-pretreated guinea pig aorta.
Type: functional, tissue-based
endpoint-label: EC50 (µM)

compound="NCC(O)c1ccc(O)c(O)c1 (single isomer, unassigned) [NOREPINEPHRINE]" endpoint_label=EC50 val=12

====

Assay: Effective dose for contraction of rabbit aorta.
Type: functional, tissue-based
endpoint-label: EC50 (nM)

compound="NC[C@H](O)c1ccc(O)c(O)c1 [NOREPINEPHRINE]" endpoint_label=EC50 val=6.6

====

Reported Ki values follow for various compounds
Molecular target: Alpha-1D adrenergic receptor (Homo sapiens)
Sequence (P25100 whole entry): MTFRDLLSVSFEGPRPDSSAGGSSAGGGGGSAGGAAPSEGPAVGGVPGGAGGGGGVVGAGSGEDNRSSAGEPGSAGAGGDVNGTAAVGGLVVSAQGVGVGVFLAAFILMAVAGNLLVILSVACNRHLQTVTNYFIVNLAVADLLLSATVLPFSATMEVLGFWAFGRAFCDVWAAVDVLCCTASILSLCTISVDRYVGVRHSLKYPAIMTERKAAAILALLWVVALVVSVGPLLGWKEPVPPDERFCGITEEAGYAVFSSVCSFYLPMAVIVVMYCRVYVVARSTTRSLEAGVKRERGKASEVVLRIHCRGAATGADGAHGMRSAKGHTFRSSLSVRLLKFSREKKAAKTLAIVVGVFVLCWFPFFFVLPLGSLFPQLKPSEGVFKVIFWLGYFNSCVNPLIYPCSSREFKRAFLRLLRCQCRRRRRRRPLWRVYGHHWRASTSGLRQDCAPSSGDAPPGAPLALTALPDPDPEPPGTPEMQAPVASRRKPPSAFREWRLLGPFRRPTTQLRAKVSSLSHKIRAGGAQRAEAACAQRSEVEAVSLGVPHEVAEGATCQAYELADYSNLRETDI
Experiment: biochemical
Description: Inhibition of [3H]prazosin binding to human Alpha-1D adrenergic receptor expressed in CHO cells
endpoint-label: Ki (nM)

cpd_smiles=CC(C)=CCOc1ccc(Cl)c2c1CCN(C)CC2 endpoint_label=Ki val=33
cpd_smiles=CN1CCc2c(Cl)ccc3oc(Br)c(c23)C1 endpoint_label=Ki val=72
cpd_smiles=C=Cc1sc2ccc(Cl)c3c2c1CN(C)CC3 endpoint_label=Ki val=1.6
cpd_smiles=CN1CCc2cccc(Cl)c2CC1 endpoint_label=Ki val=126
cpd_smiles=CCc1sc2ccc(Cl)c3c2c1CN(C)CC3 endpoint_label=Ki val=1.2

====

Molecular target: Beta-2 adrenergic receptor (Cavia porcellus)
Sequence (Q8K4Z4 whole entry): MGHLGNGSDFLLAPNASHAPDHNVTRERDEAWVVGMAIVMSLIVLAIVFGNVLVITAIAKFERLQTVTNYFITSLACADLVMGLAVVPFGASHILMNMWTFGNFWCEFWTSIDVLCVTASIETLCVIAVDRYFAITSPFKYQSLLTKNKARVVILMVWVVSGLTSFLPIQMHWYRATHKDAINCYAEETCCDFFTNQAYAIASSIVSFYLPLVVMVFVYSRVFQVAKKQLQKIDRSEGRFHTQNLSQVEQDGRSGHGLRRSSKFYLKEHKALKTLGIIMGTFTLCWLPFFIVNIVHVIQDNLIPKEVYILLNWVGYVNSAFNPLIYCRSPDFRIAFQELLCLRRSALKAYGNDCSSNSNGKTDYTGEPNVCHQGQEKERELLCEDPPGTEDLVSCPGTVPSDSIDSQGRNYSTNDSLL
Experiment: Effective dose for relaxation of guinea pig trachea.
pEC50: −log10 of the molar value.
endpoint-label: pEC50

molecule="CNC[C@H](O)c1ccc(O)c(O)c1 (stereo in doubt; (-)) [EPINEPHRINE]" endpoint_label=pEC50 val=7.82
molecule="CNC[C@H](O)c1ccc(O)c(O)c1 (stereo in doubt; (+)) [EPINEPHRINE]" endpoint_label=pEC50 val=6.36

====

Reported pKi values follow for various molecules
Target: Alpha-1B adrenergic receptor (Homo sapiens)
Sequence (P35368 whole entry): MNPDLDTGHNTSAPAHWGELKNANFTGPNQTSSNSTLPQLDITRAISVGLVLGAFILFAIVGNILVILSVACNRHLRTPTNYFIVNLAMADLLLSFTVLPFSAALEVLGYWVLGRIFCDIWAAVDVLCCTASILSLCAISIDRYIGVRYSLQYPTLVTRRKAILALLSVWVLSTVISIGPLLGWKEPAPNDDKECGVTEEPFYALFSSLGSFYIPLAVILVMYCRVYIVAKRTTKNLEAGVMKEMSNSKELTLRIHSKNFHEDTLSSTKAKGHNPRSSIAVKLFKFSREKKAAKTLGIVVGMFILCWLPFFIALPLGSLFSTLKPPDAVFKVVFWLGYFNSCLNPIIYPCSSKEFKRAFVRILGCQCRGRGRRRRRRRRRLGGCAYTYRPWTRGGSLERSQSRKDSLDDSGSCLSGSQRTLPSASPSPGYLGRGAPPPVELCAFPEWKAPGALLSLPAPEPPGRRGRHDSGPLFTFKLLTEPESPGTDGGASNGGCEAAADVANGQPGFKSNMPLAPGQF
pKi: −log10 of the molar value.
endpoint-label: pKi

cpd_smiles=CN1CCc2cccc(Cl)c2CC1 endpoint_label=pKi val=6.31
cpd_smiles=C=Cc1sc2ccc(Cl)c3c2c1CN(C)CC3 endpoint_label=pKi val=7.64
cpd_smiles=CN1CCc2c(Cl)ccc3oc(Br)c(c23)C1 endpoint_label=pKi val=6.11
cpd_smiles=CC(C)=CCOc1ccc(Cl)c2c1CCN(C)CC2 endpoint_label=pKi val=7.06
cpd_smiles=CCc1sc2ccc(Cl)c3c2c1CN(C)CC3 endpoint_label=pKi val=7.82

====

Target: Alpha-2A adrenergic receptor (Homo sapiens, UniProt P08913)
Sequence (P08913 whole entry): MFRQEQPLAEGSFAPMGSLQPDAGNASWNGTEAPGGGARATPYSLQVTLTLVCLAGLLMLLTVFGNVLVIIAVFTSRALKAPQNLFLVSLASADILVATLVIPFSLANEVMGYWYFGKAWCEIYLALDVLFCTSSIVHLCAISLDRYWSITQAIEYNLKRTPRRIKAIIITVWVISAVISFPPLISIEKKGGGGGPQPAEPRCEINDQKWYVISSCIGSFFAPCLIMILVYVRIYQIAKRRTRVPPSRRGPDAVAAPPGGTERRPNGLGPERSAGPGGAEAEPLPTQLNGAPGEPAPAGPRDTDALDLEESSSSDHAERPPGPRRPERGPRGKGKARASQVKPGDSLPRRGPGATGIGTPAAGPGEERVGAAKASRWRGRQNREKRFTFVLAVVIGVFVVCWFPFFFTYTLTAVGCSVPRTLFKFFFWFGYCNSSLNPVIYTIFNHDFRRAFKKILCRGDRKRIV
Reported Ki values follow for various compounds
endpoint-label: Ki (nM)

cpd_smiles=CCc1sc2ccc(Cl)c3c2c1CN(C)CC3 val=31
cpd_smiles=CN1CCc2c(Cl)ccc3oc(Br)c(c23)C1 val=54
cpd_smiles=C=Cc1sc2ccc(Cl)c3c2c1CN(C)CC3 val=24
cpd_smiles=CN1CCc2cccc(Cl)c2CC1 val=9.4
